system: 292921-168-R-J2-PDC complex spheroid growth; experiment: Anticancer human tumor 292921-168-R-J2-PDC patient-derived pancreatic carcinoma cell line growth inhibition [AhR]; details: second compound 0.316 µM; first compound 0.1 µM; stronger effect = lower value;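 further: spheroids exposed to compounds for seven days after three days of growth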
Assay metric: viability, T/C (%)
Reply with just the number (in %).

Looking up O=C(c1cc(Cc2n[nH]c(=O)c3ccccc23)ccc1F)N1CCN(C(=O)C2CC2)CC1 + Cc1cncc(-c2nc(NCCc3c[nH]c4ccccc34)c3ncn(C(C)C)c3n2)c1 , I found its viability, T/C recorded as 89.3

Looking up O=C(C=Cc1cccc(S(=O)(=O)Nc2ccccc2)c1)NO + CC(CO)NC(=O)c1cc(-c2ccc(Cl)cc2)nn(-c2cnn(C)c2)c1=O , I found its viability, T/C recorded as 63.3
